All values here come from PubChem BioAssay AID624491.

Item-by-item account of AC26
- System: D54 ERlucT glycosylation luciferase reporter, luminescence, 24 h
- EXPERIMENT NOTES: N-linked glycosylation inhibitors, luciferase reporter, dose response, D54 ERlucT cells, luminescence, cherry-picks (AID 624491);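 also: signal gain reflects blocked N-linked glycosylation of a luciferase reporter; actives raise luciferase signal so AC26 marks activators of the reporter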
PARAMETER: AC26

* COc1ccccc1N1CCN(C(=O)c2oc3ccccc3c2C)CC1 | 8000 nM
* COc1cc(/C=N/NC(=O)c2cc(-c3c(C)nn(-c4ccccc4)c3C)n[nH]2)ccc1O | 1390 nM
* Oc1ccc(C2=NNC(=NCc3ccc4c(c3)OCO4)SC2)c(O)c1 | 4890 nM
* Cc1ccc2c(c1)c1ccc3c(c1n2C)C(=O)C=CC3=O | 948 nM
* Cc1cc(NCCN2CCOCC2)c2ccc3ccccc3c2n1 | 3590 nM
* Cc1cc(NC(=O)COC(=O)c2ccc(S(=O)(=O)N3CCCc4ccccc43)cc2)no1 | 665 nM
* COC(=O)c1cc(C(=O)c2c(C)cc3ccccn23)cc([N+](=O)[O-])c1 | 1770 nM
* O=C(NCc1cccs1)C1CC(c2ccc(Cl)c(Cl)c2)=NO1 (stereo unspecified) | 5400 nM
* COc1ccc(S(=O)(=O)NCc2ccccn2)cc1NC(=O)c1ccccc1C | 2690 nM
* c1ccc2c(c1)c1c(c3ccccc32)CN2CCCC2C1 (stereo unspecified) | 2700 nM
* CC(C)Sc1ccccc1C(=O)Nc1ccc2c(c1)n(C)c(=O)n2C | 4830 nM
